Exercise: state measured ED50 for each of the compounds provided.
Test system: adult rats
assay-explanation: anti-inflammatory action, granuloma from an extraneous substance in rats
Format: in vivo
protocol-conditions: Rattus norvegicus, 168 h; oral × 7 days
Use mg/kg as the unit, but write only the number.

Field request: ED50 | item: Nc1nc(-c2ccc(Cl)cc2)c(CC(=O)O)s1 [LR 331] 300

Field request: ED50 | item: O=C(O)Cc1sc(Nc2ccccc2)nc1-c1ccc(Cl)cc1 [LR 330] 400

Field request: ED50 | item: CCN(CC)CCNC(=O)Cc1sc(N)nc1-c1ccc(Cl)cc1 [LR 450] 100

Field request: ED50 | item: CCN(CC)c1nc(-c2ccc(Cl)cc2)c(CC(=O)O)s1 [LR 407] 170

Data provenance is patent US3933838A.
